src = ChEMBL document CHEMBL1144230

# System: RAW264.7
# PROTOCOL_NOTES: Cytotoxicity against mouse RAW264.7 cells at 10 uM after 20 hrs by MTT assay
# Format: cell-based
# PROTOCOL_CONDITIONS: raw264.7, 20 h
Let's look at some molecules and their measured Cytotoxicity.
I'd appreciate it if you included the unit after the number.

Worked cases, Cytotoxicity given:
Inquiry: Name the reported Cytotoxicity value associated with the molecule O=C1OC(O)C(c2csc3ccccc23)=C1Br (stereo not given)
Reply text: 0%

Inquiry: Also O=C1OC(O)C(c2cccc(-c3csc4ccccc34)c2)=C1c1cccc(-c2csc3ccccc23)c1 (stereo not given) ?
Reply text: 4.1%

Inquiry: Also CCCCc1ccc(C2=C(c3ccc(-c4ccc(CCCC)cc4)cc3)C(O)OC2=O)cc1 (stereo not given) ?
Reply text: 0%

Continuing:
Inquiry: Name the reported Cytotoxicity value associated with the molecule O=C1OC(O)C(c2cccc(-c3ccc4ccccc4c3)c2)=C1c1ccc2ccccc2c1 (stereo not given)
Reply text: 8.6%

Inquiry: Also O=C1OC(O)C(c2cccc(-c3ccc(Oc4ccccc4)cc3)c2)=C1c1cccc(-c2ccc(Oc3ccccc3)cc2)c1 (stereo not given) ?
Reply text: 0%

Inquiry: Also O=C1OC(O)C(c2cccc(-c3ccc(Oc4ccccc4)cc3)c2)=C1Br (stereo not given) ?
Reply text: 0%

Inquiry: Also O=C1OC(O)C(c2ccc(-c3ccc(-c4ccccc4)cc3)cc2)=C1Br (stereo not given) ?
Reply text: 1.2%

Inquiry: Also O=C1OC(O)C(c2cccc(-c3csc4ccccc34)c2)=C1Br (stereo not given) ?
Reply text: 0%

Inquiry: Also CCCCc1ccc(-c2ccc(C3=C(Br)C(=O)OC3O)cc2)cc1 (stereo not given) ?
Reply text: 5.5%

Inquiry: Also O=C1OC(O)C(c2cccc(-c3ccc4ccccc4c3)c2)=C1Br (stereo not given) ?
Reply text: 18.6%
